Target: Histamine H3 receptor (Homo sapiens, UniProt Q9Y5N1)
Sequence (Q9Y5N1 whole entry): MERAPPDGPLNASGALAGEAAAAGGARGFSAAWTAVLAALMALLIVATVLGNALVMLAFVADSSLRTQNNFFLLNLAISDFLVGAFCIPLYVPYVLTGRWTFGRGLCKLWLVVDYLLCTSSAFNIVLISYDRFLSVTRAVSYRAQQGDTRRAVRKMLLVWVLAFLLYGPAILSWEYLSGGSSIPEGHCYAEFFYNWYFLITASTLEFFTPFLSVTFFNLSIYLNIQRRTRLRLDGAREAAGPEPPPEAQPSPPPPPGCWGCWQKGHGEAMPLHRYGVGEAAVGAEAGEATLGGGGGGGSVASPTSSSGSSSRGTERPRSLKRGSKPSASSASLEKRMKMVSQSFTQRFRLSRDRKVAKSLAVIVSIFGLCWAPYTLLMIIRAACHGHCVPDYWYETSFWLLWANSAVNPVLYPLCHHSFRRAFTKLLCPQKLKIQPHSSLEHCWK
Experiment: Displacement of [3H]N-alpha-methylhistamine from human recombinant histamine H3 receptor expressed in HEK cells after 30 mins by scintillation counting analysis
Format: cell-based, HEK293
READOUT_TYPE: Ki (nM)

Solved cases below.
Cc1nnc2n1-c1sccc1C(=O)N(C1CCN(C(=O)C3(F)CCN(Cc4ccnc(N)c4)CC3)CC1)C2    27
Nc1cc(CN2CCC(F)(C(=O)N3CCC(N4c5ccccc5Sc5ccc(C(F)(F)F)cc54)CC3)CC2)ccn1    11

1 = N#Cc1ccc2c(c1)CN(C1CCN(C(=O)C3(F)CCN(Cc4ccnc(N)c4)CC3)CC1)CC2
2 = Nc1cc(CN2CCC(F)(C(=O)N3CCC(N4CCCc5ccccc5C4)CC3)CC2)ccn1
When 1 and 2 are compared, which has the higher number for Ki? Write the label of whichever entry you select.
2
